- EXPERIMENT_DESCRIPTION: Double-blind, placebo controlled, ascending single dose pharmacokinetic study of oral DPC 333 in healthy subjects
- Type: in vivo, human
- APPLIED_CONDITIONS: both sexes, human, plasma; single oral dose 345 mg, healthy volunteers, n = 6
QUANTITY_NAME: AUC(0-inf) (µM·h)
Give bare numbers, in µM·h.

AUC(0-inf) lookup needed for Cc1cc(COc2ccc([C@]3(N)CCN([C@H](CC(C)C)C(=O)NO)C3=O)cc2)c2ccccc2n1 [DPC 333] , thanks.
23.6

----------
- EXPERIMENT_DESCRIPTION: Double-blind, placebo controlled, ascending single dose pharmacokinetic study of oral DPC 333 in healthy subjects
- Type: in vivo, human
- APPLIED_CONDITIONS: both sexes, human, plasma; single oral dose 40 mg, healthy volunteers, n = 6
QUANTITY_NAME: AUC(0-inf) (µM·h)
Numbers only, in µM·h.

AUC(0-inf) lookup needed for `Cc1cc(COc2ccc([C@]3(N)CCN([C@H](CC(C)C)C(=O)NO)C3=O)cc2)c2ccccc2n1` , thanks.
1.18

----------
- EXPERIMENT_DESCRIPTION: Double-blind, placebo controlled, ascending single dose pharmacokinetic study of oral DPC 333 in healthy subjects
- Type: in vivo, human
- APPLIED_CONDITIONS: both sexes, human, plasma, oral; single dose of 120 mg; read-out: mean AUC from time zero to time infinity, range
QUANTITY_NAME: AUC

AUC lookup needed for Cc1cc(COc2ccc([C@]3(N)CCN([C@H](CC(C)C)C(=O)NO)C3=O)cc2)c2ccccc2n1 [DPC 333] , thanks.
3.33 to 6.21 µM·h

----------
- EXPERIMENT_DESCRIPTION: Comparison of DPC 333 pharmacokinetics by gender in fasted subjects
- Assay type: in vivo, human
- APPLIED_CONDITIONS: female, human, plasma, oral, 225 mg, Females (n = 6), Part 1: 225 mg (fasted), mean ± SD
QUANTITY_NAME: Cmax (µM)
Give bare numbers, in µM.

Cmax lookup needed for `Cc1cc(COc2ccc([C@]3(N)CCN([C@H](CC(C)C)C(=O)NO)C3=O)cc2)c2ccccc2n1` , thanks.
6.65

----------
- EXPERIMENT_DESCRIPTION: Effect of food on pharmacokinetics of oral DPC 333, two period crossover study (fasted vs high-fat breakfast)
- Assay type: in vivo, human
- APPLIED_CONDITIONS: male, human, plasma, po, 225 mg, Fasted, 225 mg single oral dose, male subjects, n = 6, mean ± SD
QUANTITY_NAME: AUC(0-inf) (µM·h)
Answers are plain numbers, in µM·h.

AUC(0-inf) lookup needed for Cc1cc(COc2ccc([C@]3(N)CCN([C@H](CC(C)C)C(=O)NO)C3=O)cc2)c2ccccc2n1 [DPC 333] , thanks.
12.5

----------
- EXPERIMENT_DESCRIPTION: Comparison of DPC 333 pharmacokinetics by gender in fasted subjects
- Format: in vivo, human
- APPLIED_CONDITIONS: male, human, plasma, oral, 225 mg, Males (n = 6), Part 2: 225 mg (fasted); read-out: Tmax (median)
QUANTITY_NAME: Tmax (min)
Give bare numbers, in min.

Tmax lookup needed for `Cc1cc(COc2ccc([C@]3(N)CCN([C@H](CC(C)C)C(=O)NO)C3=O)cc2)c2ccccc2n1` , thanks.
30
